System: SF-268 CNS
Method Description: NCI-60 one-dose screen, 48 h (100 = growth as untreated, 0 = no growth, -100 = all killed)
Particulars: 10 µM unless noted
This is part of a sample that, as a whole, favours compounds with a hit. Of some 83,000 tested, about 20% had one in any assay.
Endpoint: growth (%)
State the answer as a number, implicitly in %.

COc1ccc2c(c1)C(=O)/C(=C/c1ccccn1)CC2: 90.8
CC(C)n1c(/C=C/[C@@H](O)C[C@@H](O)CC(=O)O)c(-c2ccc(F)cc2)c2ccccc21: 43.6
COc1ccc(-c2cc(NC(=O)Nc3ccc4ncsc4c3)no2)cc1: 105
COc1cc(C=Nc2oc(-c3ccccc3)c(-c3ccccc3)c2C#N)cc(CN2CCCCC2)c1O: 94.9

So for COc1cc(/C=C/C(=O)Nc2cccnc2Nc2ccc(F)cc2)cc(OC)c1OC , the logged growth turned out to be 102

====

Test system: NCI-H522 lung
Method Description: NCI-60 one-dose screen, 48 h
Particulars: 10 µM unless noted
About 83,000 compounds went through this panel and 20% of them were active in at least one assay; those are over-represented in the sample as a whole. Activity calls are given as the source filed them. The calls were made as follows: active = growth percent below 10; inactive = the rest.
Mark one answer only. Choices: class 1 = active, class 0 = inactive

Cc1nc2ccccc2n1C(=O)C[C@@H]1NC(=S)NC1=O: class 0

How did this test come out for CC(C)(O)c1cn(CCCCN2C(=O)C(=O)c3ccccc32)nn1 ?
class 0

How did this test come out for CC(=O)O[C@H]1CC[C@]2(C)[C@H]3CC=C4[C@@H]5CC(C)(C)CC[C@]5(C(=O)NCCNCCN)CC[C@@]4(C)[C@]3(C)CC[C@H]2C1(C)C ?
class 1

How did this test come out for COc1cc2c(cc1-c1c(C)noc1C)ncc1nc(C3CCOCC3)n([C@@H](C)COC(F)F)c12 ?
class 0

How did this test come out for COc1ccc(CN2c3ccccc3Oc3ccccc32)cc1F ?
class 1

====

Test system: HT29 colon
Method Description: NCI-60 one-dose screen, 48 h (100 = growth as untreated, 0 = no growth, -100 = all killed)
Particulars: 10 µM unless noted
Procedure: Growth inhibition of the HT29 human tumor cell line is measured as a screen for anti-cancer activity. Cells are grown in 96 well plates and exposed to the test compound for 48 hours. Compounds are tested at a single concentration, which is 10^-5 M for most compounds. The reported endpoint is percent growth (GI% or GIPRCNT), where numbers from 0 - 100% represent growth inhibition, and numbers from -100% - 0 represent cell death. For example, a value of 40 represents 60% growth inhibition. […]
The panel holds about 83,000 compounds, 20% with a hit somewhere; the sample as a whole holds those more often.
Property: growth; scope: individual compounds
State the answer as a number, implicitly in %.

Worked examples follow.
COc1ccc(/C=C/C(=O)c2cc(O)ccc2O)cc1: 102
COc1ccc(C(=S)N2CCN(c3cccc(Cl)c3)CC2)cc1: 101
Cc1cc(NS(=O)(=O)c2ccc(-c3cnc(C4CC4)o3)cc2)ccc1Cl: -17.1
O=C1/C(=C/c2ccc3c(c2)OCO3)SC(=S)N1CCc1ccc(O)cc1: 113

So for CON1C(=O)CC[C@]2(C)[C@H]3CC[C@@H]4C([C@@]5(C)CCC(=O)O5)CC[C@@]4(C)[C@]3(C)CC[C@H]2C1(C)C (stereo not given in full) , the logged growth turned out to be 94.6

====

Tested on: 786-0 renal
Method Description: NCI-60 one-dose screen, 48 h
Particulars: 10 µM unless noted
This is part of a sample that, as a whole, favours compounds with a hit. Of some 83,000 tested, about 20% had one in any assay. Calls of active or inactive are those of the source. Rule for the calls: active = growth percent below 10; inactive = the rest.
Mark one answer only. Choices: true (1) (active), false (0) (inactive)

The following compounds have reported results that may help.
CCC(=O)c1ccc(Cl)s1: false (0)
O=C1NC(=S)NC(=O)C1CC(=O)n1c(-c2ccccc2)nc2ccccc21: false (0)
O=C1/C(=C(/c2ccccc2)N2CCOCC2)Cc2ccccc21: true (1)
O=C1OC(c2ccccc2)C(O)=C1c1ccccc1 (stereo not given): false (0)
COc1ccc(S(=O)(=O)N2CCN(C)CC2)cc1NC(=O)c1[nH]c(C)c2c1CCCCC2=O: false (0)
CC(C)(O)c1cn(CCCCN2C(=O)C(=O)c3ccccc32)nn1: false (0)
Nc1n[nH]c2ccc([C@@H]3Nc4ccc5cn[nH]c5c4[C@H]4C5CCC(C5)[C@@H]34)cc12 (stereo not given in full): false (0)
COc1cc(/C=C/C(=O)c2c(C)oc3nc[nH]c(=O)c23)cc(OC)c1OC: false (0)

How did this test come out for COc1ccc(Nc2cc(C)nc(N3CCN(c4ccnc5cc(Cl)ccc45)CC3)n2)cc1 ?
false (0)

How did this test come out for Cc1cc(N2CCOCC2)nc(N[C@@H]2CCC[C@H](Nc3ccnc4cc(Cl)ccc34)C2)n1 ?
true (1)

====

Test system: OVCAR-5 ovarian
Method Description: NCI-60 one-dose screen, 48 h
Particulars: 10 µM unless noted
Method: Growth inhibition of the OVCAR-5 human tumor cell line is measured as a screen for anti-cancer activity. Cells are grown in 96 well plates and exposed to the test compound for 48 hours. Compounds are tested at a single concentration, which is 10^-5 M for most compounds. The reported endpoint is percent growth (GI% or GIPRCNT), where numbers from 0 - 100% represent growth inhibition, and numbers from -100% - 0 represent cell death. For example, a value of 40 represents 60% growth inhibition. […]
The panel holds about 83,000 compounds, 20% with a hit somewhere; the sample as a whole holds those more often. Active and inactive are the calls of the source. How the source made its calls: active means growth percent below 10; inactive means the rest.
Mark one answer only. Choices: active, inactive

The following compounds have reported results that may help.
Cc1ccc(O)c(N2C(=NCc3ccco3)NS(=O)(=O)c3cnccc32)c1: inactive
COc1ccc(NC2=C(Sc3nc(C)cc(C)n3)C(=O)N(Cc3ccccc3)C2=O)cc1Cl: inactive

Field: next compound
How did this test come out for COc1cc(-c2nc3ccccc3[nH]2)ccc1OCC(=O)N=Nc1c(O)[nH]c2ccc(Cl)cc12 ?
active

====

System: COLO 205 colon
Method Description: NCI-60 one-dose screen, 48 h
Particulars: 10 µM unless noted
The panel holds about 83,000 compounds, 20% with a hit somewhere; the sample as a whole holds those more often. Active and inactive are the calls of the source. How the source made its calls: active means growth percent below 10; inactive means the rest.
Mark one answer only. Choices: active, inactive

How did this test come out for CSc1ccc(SC2c3ccc(C)cc3Oc3nc(N)c(C#N)c(N)c32)cc1 (stereo not given) ?
active

====

System: SK-MEL-2 melanoma
Method Description: NCI-60 one-dose screen, 48 h (100 = growth as untreated, 0 = no growth, -100 = all killed)
Particulars: 10 µM unless noted
About 83,000 compounds went through this panel and 20% of them were active in at least one assay; those are over-represented in the sample as a whole.
Give true (1) when the value for growth is at least 90%. Give false (0) when it is less.

The following compounds have reported results that may help.
O=C(COc1cccc(/C=C2\CSc3ccccc3C2=O)c1)Nc1nccs1: false (0)
O=C(Nc1ccc(Cl)cc1)c1cc2cc(F)ccc2cc1O: false (0)
N=C(N)c1ccc(-c2ccc(-c3ccc4ccccc4c3)s2)s1: true (1)

Hello, I need to know if c1ccc(CCNc2ncnc3[nH]ncc23)cc1 has measured growth not below 90%. Thanks!
true (1)

Hello, I need to know if CCCCC[C@H]1C/C=C2/C(=O)C=C[C@@H]2C/C=C\CCCC(=O)O1 has measured growth not below 90%. Thanks!
false (0)

====

Tested on: HCT-116 colon
Method Description: NCI-60 one-dose screen, 48 h
Particulars: 10 µM unless noted
Compounds without any hit were thinned out: in the full panel of roughly 83,000, 20% have a hit. Calls of active or inactive are those of the source. How the source made its calls: active means growth percent below 10; inactive means the rest.
Mark one answer only. Choices: Yes (active), No (inactive)

The following compounds have reported results that may help.
Cc1cc(C)nc(SC2=C(Nc3ccc(C)c(Cl)c3)C(=O)N(Cc3ccccc3)C2=O)n1: No
COc1cc(/C=C/c2cc(O)c3cc(C(C)=O)c(=O)oc3c2)cc2c1O[C@]1(C)CC[C@@H](O)C(C)(C)[C@H]1C2: No
O=C(COc1cccc(/C=C2\COc3ccc(Cl)cc3C2=O)c1)c1ccc(Cl)cc1: No
CC1=C/C(=C(\c2ccc(N(C)C)cc2)c2ccc([N+](C)(C)C)cc2)C=CC1=[N+](C)C: No
CCC(=O)c1ccc(Cl)s1: No

How did this test come out for Cn1c(NCCc2ccc(O)c(O)c2)nc2c1c(=O)n(Cc1ccc(Cl)c(Cl)c1)c(=O)n2C ?
No

How did this test come out for O=C(Nc1ccc(Cl)cc1)c1cc2cc(F)ccc2cc1O ?
No

How did this test come out for Cn1c(=O)c2c(nc3n(-c4ccc(Cl)cc4Cl)c(Sc4nc(-c5ccccc5)c(C#N)c(=O)[nH]4)cn23)n(C)c1=O ?
No

meta.source: PubChem BioAssay (NCI)
